target: DARPin 1800; test: ITC; target proteins (p53 family domains) titrated to constant concentrations of DARPin; 25 °C; 50 mM HEPES pH 7.4, 150 mM NaCl, 0.5 mM TCEP; MicroCal VP-ITC
Readout Name: pKd
Scale: negative log10 of molar concentration, which is what pKd denotes.

Recorded result, DEDTYYLQVRGRENFEILMKLKESLELMELVPQPLVDSYRQQQQLLQR (domain or fragment, UniProt O15350 351-398, looked up) [p73 oligomerization domain (aa 351–398 of TAp73α)] , pKd: 7.02
